Tested on: Hepatitis C virus
Assay: Compound was tested for the inhibition of HCV NS5B-mediated RNA synthesis
Assay type: functional, Hepacivirus hominis
Give IC50 for every item shown.
One number for each entry, in nM.

[
  {
    "smiles-str": "C[C@@]1(O)[C@H](O)[C@@H](CO)O[C@H]1n1cnc2c(=O)[nH]c(N)nc21",
    "measurement": 130
  }
]

Look up IC50 for this compound: `C[C@@]1(O)[C@H](O)[C@@H](CO)O[C@H]1n1cnc2c(N)ncnc21`
1900
